- assay details: Cytotoxicity in HEK293 cells after 48 hrs by Cell-titer Glo reagent based assay
- condition parameters: human, read-out: LD50
Measured CC50 at 48 h of individual entries
attribute measured: CC50 at 48 h

>>> print(df.to_string())
                                         mol  attribute_measured  obs_value
 0  [2H]C([2H])([2H])Oc1ccc2c(c1)C(=O)N1CCC[C@H]1c1c(C(=O)NC3CC3)ncn1-2        CC50 at 48 h   > 200 µM
 1  [2H]C([2H])([2H])Oc1ccc2c(c1)C(=O)N1CCC[C@H]1c1c(C(=O)SCC)ncn1-2        CC50 at 48 h   > 100 µM
 2  COc1ccc2c(c1)C(=O)N1CCC[C@H]1c1c(C(=O)OC(C(F)(F)F)C(F)(F)F)ncn1-2        CC50 at 48 h   > 200 µM
 3  COc1ccc2c(c1)C(=O)N1CCC[C@H]1c1c(C(=O)N(C)C)ncn1-2        CC50 at 48 h   > 400 µM
 4  [2H]C([2H])([2H])Oc1ccc2c(c1)C(=O)N1CCC[C@H]1c1c(C(=O)NCC)ncn1-2        CC50 at 48 h   > 400 µM
 5  [2H]C([2H])([2H])Oc1ccc2c(c1)C(=O)N1CCC[C@H]1c1c(C(=O)OC(C)(C)C)ncn1-2        CC50 at 48 h   > 100 µM
 6  COc1ccc2c(c1)C(=O)N1CCC[C@H]1c1c(C(=O)NC3CC3)ncn1-2        CC50 at 48 h   > 200 µM
 7  CCSC(=O)c1ncn2c1[C@@H]1CCCN1C(=O)c1cc(OC)ccc1-2        CC50 at 48 h   > 100 µM
 8  [2H]C([2H])([2H])Oc1ccc2c(c1)C(=O)N1CCC[C@H]1c1c(C(=O)SC(C)(C)C)ncn1-2        CC50 at 48 h    16.8 µM
 9  CCOC(=O)c1ncn2c1[C@@H]1CCCN1C(=O)c1cc(O)ccc1-2        CC50 at 48 h   > 400 µM
10  [2H]C([2H])([2H])Oc1ccc2c(c1)C(=O)N1CCC[C@H]1c1c(C(=O)NC(C)(C)C)ncn1-2        CC50 at 48 h   > 200 µM
11  COc1ccc2c(c1)C(=O)N1CCC[C@H]1c1c(C(=O)OC(C)(C)C)ncn1-2        CC50 at 48 h   > 100 µM
12  [2H]C([2H])([2H])Oc1ccc2c(c1)C(=O)N1CCC[C@H]1c1c(C(=O)O)ncn1-2        CC50 at 48 h   > 400 µM
13  [2H]C([2H])([2H])Oc1ccc2c(c1)C(=O)N1CCC[C@H]1c1c(C(=O)OCC)ncn1-2        CC50 at 48 h   > 400 µM
14  [2H]C([2H])([2H])Oc1ccc2c(c1)C(=O)N1CCC[C@H]1c1c(C(=O)OC)ncn1-2        CC50 at 48 h   > 400 µM
15  COc1ccc2c(c1)C(=O)N1CCC[C@H]1c1c(C(=O)OCC(C)C)ncn1-2        CC50 at 48 h   > 100 µM
16  [2H]C([2H])([2H])Oc1ccc2c(c1)C(=O)N1CCC[C@H]1c1c(C(=O)NC)ncn1-2        CC50 at 48 h   > 100 µM
17  [2H]C([2H])([2H])Oc1ccc2c(c1)C(=O)N1CCC[C@H]1c1c(C(=O)OC(C(F)(F)F)C(F)(F)F)ncn1-2        CC50 at 48 h   > 200 µM
18  COC(=O)c1ncn2c1[C@@H]1CCCN1C(=O)c1cc(OC)ccc1-2        CC50 at 48 h   > 400 µM
19  [2H]C([2H])([2H])Oc1ccc2c(c1)C(=O)N1CCC[C@H]1c1c(C(=O)N(C)C)ncn1-2        CC50 at 48 h   > 400 µM
20  CC(C)(C)OC(=O)c1ncn2c1[C@@H]1CCCN1C(=O)c1cc(O)ccc1-2        CC50 at 48 h   > 400 µM
21  [2H]C([2H])([2H])Oc1ccc2c(c1)C(=O)N1CCC[C@H]1c1c(C(=O)OCC(C)C)ncn1-2        CC50 at 48 h   > 100 µM
22  COc1ccc2c(c1)C(=O)N1CCC[C@H]1c1c(C(=O)SC(C)(C)C)ncn1-2        CC50 at 48 h    18.8 µM
23  COc1ccc2c(c1)C(=O)N1CCC[C@H]1c1c(C(=O)NC(C)(C)C)ncn1-2        CC50 at 48 h   > 200 µM
24  CNC(=O)c1ncn2c1[C@@H]1CCCN1C(=O)c1cc(OC)ccc1-2        CC50 at 48 h   > 100 µM
25  CCNC(=O)c1ncn2c1[C@@H]1CCCN1C(=O)c1cc(OC)ccc1-2        CC50 at 48 h   > 400 µM
26  CCOC(=O)c1ncn2c1[C@@H]1CCCN1C(=O)c1cc(OC)ccc1-2        CC50 at 48 h   > 400 µM
27  COc1ccc2c(c1)C(=O)N1CCC[C@H]1c1c(C(=O)O)ncn1-2        CC50 at 48 h   > 400 µM

====

Measured Stability of individual entries
- Test system: Liver
- assay details: Metabolic stability in mouse liver microsomes assessed as compound remaining at 10 uM after 1 hr by LC-MS/MS analysis
- Type: ADME, microsome
attribute measured: Stability (%)

>>> print(df.to_string())
                                        mol  obs_value
0  COc1ccc2c(c1)C(=O)N1CCC[C@H]1c1c(C(=O)OCC(C)C)ncn1-2       13.4
1  [2H]C([2H])([2H])Oc1ccc2c(c1)C(=O)N1CCC[C@H]1c1c(C(=O)OCC)ncn1-2       85.5
2  CNC(=O)c1ncn2c1[C@@H]1CCCN1C(=O)c1cc(OC)ccc1-2       54.3
3  COc1ccc2c(c1)C(=O)N1CCC[C@H]1c1c(C(=O)N(C)C)ncn1-2       82.5
4  CC(C)(C)OC(=O)c1ncn2c1[C@@H]1CCCN1C(=O)c1cc(O)ccc1-2       46.6

====

- Test system: Liver
- assay details: Metabolic stability in mouse liver microsomes assessed as compound remaining at 10 uM after 1 hr by LC-MS/MS analysis
- Format: ADME, microsome
Measured Stability of individual entries
attribute measured: Stability (%)

In [3]: df
Out[3]:
                                         mol  experimental_system  obs_value
 0  CCNC(=O)c1ncn2c1[C@@H]1CCCN1C(=O)c1cc(OC)ccc1-2                Liver       50.1
 1  COc1ccc2c(c1)C(=O)N1CCC[C@H]1c1c(C(=O)NC(C)(C)C)ncn1-2                Liver        4.2
 2  [2H]C([2H])([2H])Oc1ccc2c(c1)C(=O)N1CCC[C@H]1c1c(C(=O)OCC(C)C)ncn1-2                Liver       22.4
 3  COc1ccc2c(c1)C(=O)N1CCC[C@H]1c1c(C(=O)OC(C)(C)C)ncn1-2                Liver       16.2
 4  [2H]C([2H])([2H])Oc1ccc2c(c1)C(=O)N1CCC[C@H]1c1c(C(=O)OC(C)(C)C)ncn1-2                Liver       17.6
 5  [2H]C([2H])([2H])Oc1ccc2c(c1)C(=O)N1CCC[C@H]1c1c(C(=O)NC(C)(C)C)ncn1-2                Liver        9.4
 6  CCOC(=O)c1ncn2c1[C@@H]1CCCN1C(=O)c1cc(OC)ccc1-2                Liver       85.4
 7  COc1ccc2c(c1)C(=O)N1CCC[C@H]1c1c(C(=O)O)ncn1-2                Liver       52.9
 8  [2H]C([2H])([2H])Oc1ccc2c(c1)C(=O)N1CCC[C@H]1c1c(C(=O)N(C)C)ncn1-2                Liver       83.1
 9  [2H]C([2H])([2H])Oc1ccc2c(c1)C(=O)N1CCC[C@H]1c1c(C(=O)OC(C(F)(F)F)C(F)(F)F)ncn1-2                Liver       62.5
10  [2H]C([2H])([2H])Oc1ccc2c(c1)C(=O)N1CCC[C@H]1c1c(C(=O)NC3CC3)ncn1-2                Liver       94.1
11  COC(=O)c1ncn2c1[C@@H]1CCCN1C(=O)c1cc(OC)ccc1-2                Liver       70.3
12  [2H]C([2H])([2H])Oc1ccc2c(c1)C(=O)N1CCC[C@H]1c1c(C(=O)NC)ncn1-2                Liver       56.8
13  CCOC(=O)c1ncn2c1[C@@H]1CCCN1C(=O)c1cc(O)ccc1-2                Liver       91.1
14  [2H]C([2H])([2H])Oc1ccc2c(c1)C(=O)N1CCC[C@H]1c1c(C(=O)O)ncn1-2                Liver       84.6
15  COc1ccc2c(c1)C(=O)N1CCC[C@H]1c1c(C(=O)NC3CC3)ncn1-2                Liver       91.3
16  [2H]C([2H])([2H])Oc1ccc2c(c1)C(=O)N1CCC[C@H]1c1c(C(=O)OC)ncn1-2                Liver       85.9
17  [2H]C([2H])([2H])Oc1ccc2c(c1)C(=O)N1CCC[C@H]1c1c(C(=O)NCC)ncn1-2                Liver       94.8
